System: Bacillus subtilis
Assay: Antibacterial activity against Bacillus subtilis after 24 hrs by broth dilution method
Type: functional
Recorded MIC values for a group of molecules are listed next.
The answer is to be given in µg/mL; state only the numeric part.

Q: Recall the recorded MIC for `N/N=C1/c2cc(Br)ccc2-n2c1nc1ccccc1c2=O` with Bacillus subtilis and state it.
Result: 50

Q: Recall the recorded MIC for `COc1ccc2c(c1)/C(=N/N=C1/C=C(O)c3ccccc31)c1nc3ccccc3c(=O)n1-2` with Bacillus subtilis and state it.
Result: 3.12

Q: Recall the recorded MIC for `O=c1c2ccccc2nc2n1-c1ccc(Br)cc1/C2=N/N=C1/C=C(O)c2ccccc21` with Bacillus subtilis and state it.
Result: 1.56

Q: Recall the recorded MIC for `O=c1c2ccccc2nc2n1-c1ccccc1/C2=N/N=C1/C=C(O)CCC1` with Bacillus subtilis and state it.
Result: 3.12

Q: Recall the recorded MIC for `CC(O)=CC(C)=N/N=C1/c2cc(C)cc(C)c2-n2c1nc1ccccc1c2=O` with Bacillus subtilis and state it.
Result: 12.5

###

Test system: Bacillus subtilis
Assay: Antibacterial activity against Bacillus subtilis after 24 hrs by broth dilution method
Assay type: functional
measured endpoint: MIC (µg/mL)
The answer is to be given in µg/mL; state only the numeric part.

{"compound": "CC(O)=CC(C)=N/N=C1/c2cc(Br)ccc2-n2c1nc1ccccc1c2=O", "MIC / µg/mL": 50}
{"compound": "CCO/C(O)=C/C(C)=N/N=C1/c2cc(Br)ccc2-n2c1nc1ccccc1c2=O", "MIC / µg/mL": 3.12}
{"compound": "CCO/C(O)=C/C(C)=N/N=C1/c2ccccc2-n2c1nc1ccccc1c2=O", "MIC / µg/mL": 6.25}

Q: MIC lookup needed for `COc1ccc2c(c1)/C(=N/N=C(C)C=C(C)O)c1nc3ccccc3c(=O)n1-2` , thanks.
Result: 50

Q: MIC lookup needed for `O=c1c2ccccc2nc2n1-c1ccccc1/C2=N/N=C1/C=C(O)c2ccccc21` , thanks.
Result: 6.25

Q: MIC lookup needed for CN[C@@H]1[C@H](O[C@H]2[C@H](O[C@H]3[C@H](O)[C@@H](O)[C@H](N=C(N)N)[C@@H](O)[C@@H]3N=C(N)N)O[C@@H](C)[C@]2(O)C=O)O[C@@H](CO)[C@H](O)[C@H]1O [STREPTOMYCIN] , thanks.
Result: 3.12

###

Assay: Cytotoxicity against HEK293 cells assessed as inhibition of cell viability after 48 hrs by MTT assay
Type: toxicity, cell-based
Conditions: human
Recorded IC50 at 48 h values for a group of molecules are listed next.
The answer is to be given in µM; state only the numeric part.

{"chemical string": "O=c1c2ccccc2nc2n1-c1ccc(Br)cc1/C2=N/N=C1/C=C(O)c2ccccc21", "IC50 at 48 h / µM": 55.2}
{"chemical string": "CC(C=C(O)c1ccccc1)=N/N=C1/c2ccccc2-n2c1nc1ccccc1c2=O", "IC50 at 48 h / µM": 68.1}

Consider the record given below.
Q: IC50 at 48 h lookup needed for `CC(C=C(O)c1ccccc1)=N/N=C1/c2cc(Br)ccc2-n2c1nc1ccccc1c2=O` , thanks.
Result: 46.1

###

Experiment: Cytotoxicity against human MCF7 cells assessed as inhibition of cell viability after 48 hrs by MTT assay
Format: functional, cell-based
Conditions: MCF7, 48 h
Lab note: cut-off is 40 µM. Strictly less in IC50 is 1. Exactly 40 µM or more is 0.

{"chemical string": "CC(O)=CC(C)=N/N=C1/c2cc(Br)ccc2-n2c1nc1ccccc1c2=O", "answer label": 1}
{"chemical string": "COc1ccc2c(c1)/C(=N/N=C1/C=C(O)c3ccccc31)c1nc3ccccc3c(=O)n1-2", "answer label": 0}
{"chemical string": "O=c1c2ccccc2nc2n1-c1ccc(Br)cc1/C2=N/N=C1/C=C(O)c2ccccc21", "answer label": 1}
{"chemical string": "COc1ccc2c(c1)/C(=N/N=C1/C=C(O)CCC1)c1nc3ccccc3c(=O)n1-2", "answer label": 1}
{"chemical string": "CC(C=C(O)c1ccccc1)=N/N=C1/c2ccccc2-n2c1nc1ccccc1c2=O", "answer label": 1}
{"chemical string": "COc1ccc2c(c1)/C(=N/N=C(C)C=C(C)O)c1nc3ccccc3c(=O)n1-2", "answer label": 0}
{"chemical string": "N/N=C1/c2cc(Br)ccc2-n2c1nc1ccccc1c2=O", "answer label": 1}
{"chemical string": "CC(O)=CC(C)=N/N=C1/c2cc(C)cc(C)c2-n2c1nc1ccccc1c2=O", "answer label": 0}

Q: Say whether its IC50 is strictly beneath 40 µM. Entry: `O=c1c2ccccc2nc2n1-c1ccccc1/C2=N/N=C1/C=C(O)c2ccccc21`
Result: 0

Q: Say whether its IC50 is strictly beneath 40 µM. Entry: `C/C(O)=C/C(C)=N/N=C1/c2ccccc2-n2c1nc1ccccc1c2=O`
Result: 0

Q: Say whether its IC50 is strictly beneath 40 µM. Entry: `CCO/C(O)=C/C(C)=N/N=C1/c2cc(Br)ccc2-n2c1nc1ccccc1c2=O`
Result: 1

Q: Say whether its IC50 is strictly beneath 40 µM. Entry: `CCO/C(O)=C/C(C)=N/N=C1/c2ccccc2-n2c1nc1ccccc1c2=O`
Result: 0

Q: Say whether its IC50 is strictly beneath 40 µM. Entry: `CCO/C(O)=C/C(C)=N/N=C1/c2cc(OC)ccc2-n2c1nc1ccccc1c2=O`
Result: 0

Q: Say whether its IC50 is strictly beneath 40 µM. Entry: `O=c1c2ccccc2nc2n1-c1ccc(Br)cc1/C2=N/N=C1/C=C(O)CCC1`
Result: 0

###

Recorded MIC values for a group of molecules are listed next.
Tested on: Bacillus subtilis
Assay: Antibacterial activity against Bacillus subtilis after 24 hrs by broth dilution method
Assay type: functional
The answer is to be given in µg/mL; state only the numeric part.

Consider the worked cases shown below.
{"chemical string": "COc1ccc2c(c1)/C(=N/N=C1/C=C(O)CCC1)c1nc3ccccc3c(=O)n1-2", "obs value": 6.25}
{"chemical string": "O=c1c2ccccc2nc2n1-c1ccc(Br)cc1/C2=N/N=C1/C=C(O)CCC1", "obs value": 3.12}
{"chemical string": "CC1(C)CC(O)=C/C(=N/N=C2/c3ccccc3-n3c2nc2ccccc2c3=O)C1", "obs value": 50}
{"chemical string": "C/C(O)=C/C(C)=N/N=C1/c2ccccc2-n2c1nc1ccccc1c2=O", "obs value": 25}

Consider the record given below.
Q: Recall the recorded MIC for `CCO/C(O)=C/C(C)=N/N=C1/c2cc(OC)ccc2-n2c1nc1ccccc1c2=O` with Bacillus subtilis and state it.
Result: 6.25

###

Assay: Cytotoxicity against human MCF7 cells assessed as inhibition of cell viability after 48 hrs by MTT assay
Assay type: functional, cell-based
Conditions: MCF7, 48 h
Lab note: cut-off is 30 µM. Strictly less in IC50 is T. Exactly 30 µM or more is F.

Solved cases below.
{"chemical string": "CC1(C)CC(O)=C/C(=N/N=C2/c3cc(Br)ccc3-n3c2nc2ccccc2c3=O)C1", "answer label": "F"}
{"chemical string": "O=c1c2ccccc2nc2n1-c1ccccc1/C2=N/N=C1/C=C(O)CCC1", "answer label": "T"}
{"chemical string": "N/N=C1/c2ccccc2-n2c1nc1ccccc1c2=O", "answer label": "T"}
{"chemical string": "COc1ccc2c(c1)/C(=N/N=C1/C=C(O)CC(C)(C)C1)c1nc3ccccc3c(=O)n1-2", "answer label": "F"}
{"chemical string": "CC(C=C(O)c1ccccc1)=N/N=C1/c2cc(Br)ccc2-n2c1nc1ccccc1c2=O", "answer label": "T"}

Q: Say whether its IC50 is strictly beneath 30 µM. Entry: `COc1ccc2c(c1)/C(=N/N=C(C)C=C(O)c1ccccc1)c1nc3ccccc3c(=O)n1-2`
Result: F

Q: Say whether its IC50 is strictly beneath 30 µM. Entry: `CC1(C)CC(O)=C/C(=N/N=C2/c3ccccc3-n3c2nc2ccccc2c3=O)C1`
Result: F

Q: Say whether its IC50 is strictly beneath 30 µM. Entry: `COc1ccc2c(c1)/C(=N/N)c1nc3ccccc3c(=O)n1-2`
Result: F
